pIC50: −log10 of the molar value.
Dear all, I have gathered published pIC50 values for human PDE10A2 (Homo sapiens (Human), UniProt Q9Y233); the list follows.
Outcome: Y for pIC50 of at least 7; N for anything lower.

# example entries with known answers
> print(dat)
                         compound.structure  assigned.label
1  Cc1cc(C)n2nc(SCc3cn4c(n3)-c3ccccc3C4)nc2n1               N
2  Cc1nc2c(C3CCC3)cc(CCc3nc(N4CCCC4)nn3C)nn2c1C               Y
3  C[C@H]1CCCN1c1nc2cc(NC(=O)c3c(-c4nc(C(F)F)c(Cl)s4)cnn3C)ccn2n1               Y
4  CC(C)c1ncc(Nc2cncnc2)c(C(=O)Nc2cnccc2C(=O)NCC(C)(C)O)n1               Y
5   Cc1ccc(C)n2nc(CCc3nc(-c4nccs4)cn3C)nc12               Y
6  Cn1nccc1-c1ccc(F)c2c1C(=O)N(CCc1ccc3ccccc3n1)C2               Y
7   Cc1ncc(C)n2nc(CCc3nc(-c4ccco4)nn3C)nc12               Y

With those in mind, consider the next compound.
Please check the record "CC1(C)CCCN(c2nnc3c(N)ncc(C4CC4)n23)C1" and state if its pIC50 is at or above 7.
N

----------
Target or system human PDE10A2 (Homo sapiens (Human), UniProt Q9Y233); metric IC50; compiled from varied reports.
Report the figure in nM without appending any unit label.

Below, each entry is followed by its recorded IC50 result.
> print(dat)
                                   molecule                            assayed.target  measured.quantity  assay.result
1  CC1(C)CCCN(c2nnc3c(N)ncc(C(F)(F)F)n23)C1  human PDE10A2 (Homo sapiens (Human), UniProt Q9Y233)               IC50          7400
2  CC1CCC(C)(C)CN1c1nnc2c(N)nccn12 (single isomer, unassigned)  human PDE10A2 (Homo sapiens (Human), UniProt Q9Y233)               IC50           160
3  Cn1nc(-c2ccccn2)cc1NC(=O)c1nc(C2CC2)ncc1Nc1cncnc1  human PDE10A2 (Homo sapiens (Human), UniProt Q9Y233)               IC50            87
4  O=C(Nc1cc(-c2ccccn2)nn1CC1CCCCC1)c1nc(C2CC2)ccc1Nc1cncnc1  human PDE10A2 (Homo sapiens (Human), UniProt Q9Y233)               IC50             1
5  Cn1ncc(NC(=O)c2nc(C3CC3)cnc2Nc2cncnc2)c1C(=O)N1CCC1  human PDE10A2 (Homo sapiens (Human), UniProt Q9Y233)               IC50          12.7
6  Cc1nc2c(C)c(C)c(OCc3nc(-c4ccccc4)cn3C)nn2c1C  human PDE10A2 (Homo sapiens (Human), UniProt Q9Y233)               IC50           1.7
7  O=C(Nc1cc(-c2ccc(Cl)cc2)no1)c1nc(C2CC2)ccc1Nc1cncnc1  human PDE10A2 (Homo sapiens (Human), UniProt Q9Y233)               IC50          1450
8  Cn1cc(NC(=O)c2nc(C3CC3)ccc2Nc2cncnc2)c(C(=O)NCC(O)CO)n1 (stereo not drawn)  human PDE10A2 (Homo sapiens (Human), UniProt Q9Y233)               IC50           8.1

Measured IC50 for this entry "Cc1nc2c(S(C)(=O)=O)cc(CCc3nc(N4CCCC4)nn3C)nn2c1C" on human PDE10A2 (Homo sapiens (Human), UniProt Q9Y233): 41

Item: "Cc1nc(C)n2nc(CCc3nc(N4CCCC4)nn3C)nc2c1C" | System: human PDE10A2 (Homo sapiens (Human), UniProt Q9Y233) | IC50: 13.6
